- Target Of Assay: AhR (Homo sapiens)
- Construct: One of the resultant clones was named HEK-XRE 11.1, and used in the reporter gene assays; endogenous in cells; host or cells: HEK-XRE 11.1 (HEK cells stably carrying the AhR-responsive luciferase reporter X4-4.27 and phRL-CMV)
- Sequence (P35869 11-848): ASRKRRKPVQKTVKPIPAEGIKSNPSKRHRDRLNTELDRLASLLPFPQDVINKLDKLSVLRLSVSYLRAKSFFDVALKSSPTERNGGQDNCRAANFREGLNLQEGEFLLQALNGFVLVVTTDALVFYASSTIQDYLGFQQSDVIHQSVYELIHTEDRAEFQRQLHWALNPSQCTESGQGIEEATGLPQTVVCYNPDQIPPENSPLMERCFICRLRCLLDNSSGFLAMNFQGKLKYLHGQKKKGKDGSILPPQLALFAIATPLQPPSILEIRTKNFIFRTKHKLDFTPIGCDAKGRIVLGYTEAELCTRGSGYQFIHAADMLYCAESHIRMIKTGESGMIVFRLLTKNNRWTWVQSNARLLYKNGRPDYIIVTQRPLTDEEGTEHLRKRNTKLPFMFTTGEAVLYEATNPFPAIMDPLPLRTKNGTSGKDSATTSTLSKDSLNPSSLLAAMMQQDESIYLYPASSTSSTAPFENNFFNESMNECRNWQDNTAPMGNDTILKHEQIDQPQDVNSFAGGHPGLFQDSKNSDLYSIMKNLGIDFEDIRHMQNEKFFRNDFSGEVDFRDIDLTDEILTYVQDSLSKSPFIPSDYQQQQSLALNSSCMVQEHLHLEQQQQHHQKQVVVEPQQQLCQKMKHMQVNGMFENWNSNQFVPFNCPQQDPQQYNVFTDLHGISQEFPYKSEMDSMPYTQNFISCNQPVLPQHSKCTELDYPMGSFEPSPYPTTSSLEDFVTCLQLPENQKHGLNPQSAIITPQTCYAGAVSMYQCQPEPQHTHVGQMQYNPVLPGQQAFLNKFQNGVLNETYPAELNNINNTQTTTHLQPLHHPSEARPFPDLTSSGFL
- Experimental Details: Inhibition of AhR-mediated gene transcription (HEK-XRE 11.1 luciferase reporter, MeBIO induction)
- Type: cell-based
- Cond: HEK-XRE 11.1 cells, MeBIO 0.1 nM, luminescence after 24 hours; Table 1
- Method: HEK cells line was transfected with an AhR-responsive firefly luciferase reporter gene X4-4.27 and the stable transfectants generated were again transfected with phRL-CMV (a Renilla luciferase expression vector; Promega) along with pBAsi-hU6 Pur DNA (a plasmid carrying the puromycin-resistant gene; TaKaRa, Shiga, Japan), and maintained in the presence of both hygromycin B and puromycin (2 mg/mL). One of the resultant clones was named HEK-XRE 11.1, and used in the reporter gene assays. […]
pIC50: −log10 of the molar value.
Exercise: state measured pIC50 for each of the compounds provided.

Sample answers from the record:
>  <Compound>
Nc1c(C(=O)Nc2cccc(-c3ccncc3)c2)sc2ncc(C(F)(F)F)cc12 [Compound 1058]

>  <Target Of Assay>
AhR (Homo sapiens)

>  <pIC50>
> 7.30

$$$$
>  <Compound>
COc1ccc(NC(=O)c2sc3ccc(C)nc3c2N)cc1 [Compound 1129]

>  <Target Of Assay>
AhR (Homo sapiens)

>  <pIC50>
6.30 to 7.30

$$$$
>  <Compound>
COc1cc(NC(=O)c2sc3ncc(C(F)(F)F)cc3c2N)ccc1F [Compound 1121]

>  <Target Of Assay>
AhR (Homo sapiens)

>  <pIC50>
6.30 to 7.30

$$$$
>  <Compound>
N#Cc1cnc2sc(C(=O)Nc3ccccc3)c(N)c2c1 [Compound 1016]

>  <Target Of Assay>
AhR (Homo sapiens)

>  <pIC50>
< 6.30

$$$$
>  <Compound>
Nc1c(C(=O)Nc2ccc(-c3ccncc3)cc2)sc2ncc(C(F)(F)F)cc12 [Compound 1056]

>  <Target Of Assay>
AhR (Homo sapiens)

>  <pIC50>
6.30 to 7.30

$$$$
>  <Compound>
COC(=O)c1ccc(NC(=O)c2sc3ncc(C(F)(F)F)cc3c2N)cc1 [Compound 1125]

>  <Target Of Assay>
AhR (Homo sapiens)

>  <pIC50>
6.30 to 7.30

$$$$
>  <Compound>
Cc1ccc2sc(C(=O)Nc3ccccc3)c(N)c2n1 [Compound 1072]

>  <Target Of Assay>
AhR (Homo sapiens)

>  <pIC50>
6.30 to 7.30

$$$$
>  <Compound>
Nc1c(C(=O)Nc2ccncc2)sc2ncc(Br)cc12 [Compound 1012]

>  <Target Of Assay>
AhR (Homo sapiens)

>  <pIC50>
6.30 to 7.30

$$$$
>  <Compound>
CCOc1ccc(NC(=O)c2sc3ncc(C)cc3c2N)cc1 [Compound 1142]

>  <Target Of Assay>
AhR (Homo sapiens)

>  <pIC50>
> 7.30

$$$$
>  <Compound>
CSc1ccc(NC(=O)c2sc3ncc(C)cc3c2N)cc1 [Compound 1143]

>  <Target Of Assay>
AhR (Homo sapiens)

>  <pIC50>
> 7.30

$$$$

The following compounds each have a reported value; give each one's pIC50.
1. CCOc1ccc(NC(=O)c2sc3ncc(C(F)(F)F)cc3c2N)cc1 [Compound 1122]
2. Nc1c(C(=O)Nc2ccc(F)cc2)sc2ccc(C(F)(F)F)nc12 [Compound 1117]
3. CNC(=O)c1ccc(NC(=O)c2sc3ncc(C(F)(F)F)cc3c2N)cc1 [Compound 1124]
4. Nc1c(C(=O)Nc2cccc(Cl)c2)sc2ccc(C(F)(F)F)cc12 [Compound 1144]
5. COc1ccc(NC(=O)c2sc3ccc(C)cc3c2N)cc1 [Compound 1119]
6. NC(=O)c1ccc(NC(=O)c2sc3ncc(C(F)(F)F)cc3c2N)cc1 [Compound 1123]
7. CN(C)c1ccc(NC(=O)c2sc3ncc(C(F)(F)F)cc3c2N)cc1 [Compound 1126]

Result block:
1. > 7.30
2. > 7.30
3. 6.30 to 7.30
4. > 7.30
5. 6.30 to 7.30
6. 6.30 to 7.30
7. 6.30 to 7.30

Go through the items and report each one's pIC50.
1. Cc1ccc(NC(=O)c2sc3ccc(C)cc3c2N)cc1 [Compound 1131]
2. Cc1cc2c(N)c(C(=O)Nc3ccccc3)sc2nc1C [Compound 1005]
3. COc1ccc(NC(=O)c2sc3ncc(C(F)(F)F)cc3c2N)cc1 [Compound 1048]
4. Nc1c(C(=O)Nc2ccc(Br)cc2)sc2ccc(C(F)(F)F)cc12 [Compound 1064]
5. Cc1ccc(NC(=O)c2sc3cnc(C(F)(F)F)cc3c2N)cc1 [Compound 1052]
6. Nc1c(C(=O)Nc2ccc(C(F)(F)F)cc2)sc2ccc(C(F)(F)F)cc12 [Compound 1138]
7. Cc1cccc(NC(=O)c2sc3ncc(C)cc3c2N)c1 [Compound 1140]

Result block:
["6.30 to 7.30", "6.30 to 7.30", "> 7.30", "6.30 to 7.30", "6.30 to 7.30", "6.30 to 7.30", "6.30 to 7.30"]

// for each compound below, give its pIC50
1. Nc1c(C(=O)Nc2ccc(Cl)cc2)sc2ncc(C(F)(F)F)cc12 [Compound 1045]
2. COc1ccc(NC(=O)c2sc3ccc(C(F)(F)F)cc3c2N)cc1Cl [Compound 1136]
3. CCOC(=O)c1cnc2sc(C(=O)Nc3ccccc3)c(N)c2c1 [Compound 1044]
4. Nc1c(C(=O)Nc2ccc(CCO)cc2)sc2ncc(C(F)(F)F)cc12 [Compound 1017]
5. COc1cccc(NC(=O)c2sc3nc4c(cc3c2N)CCC4)c1 [Compound 1081]

Result block:
1: > 7.30; 2: > 7.30; 3: 6.30 to 7.30; 4: 6.30 to 7.30; 5: > 7.30

List pIC50 for every entry below, keeping the order given.
1. Nc1c(C(=O)Nc2ccc3ncsc3c2)sc2ncc(C(F)(F)F)cc12 [Compound 1029]
2. Nc1c(C(=O)Nc2ccccc2)sc2nc3c(cc12)CCC3 [Compound 1001]

Result block:
1: 6.30 to 7.30; 2: > 7.30
